# Tested On: MyD88^TIR (Homo sapiens)
# Construct: MyD88 (residues 148–296); 6xHis; made in house; host or cells: E. coli BL21 (DE3)
# Assay: T‐Surf phage library (P8 and P3) selection against MyD88^TIR, four rounds, NGS read counts
# Format: binding
# Conditions Used: P3_MyD88 pool: P3 T-Surf phage library, 4th round of selection against MyD88 TIR, share of NGS reads
Result Type: Population (%)

> print(dat)
        record.sequence  quantitative.readout
 1     SSLREGLWRLLELSKK               0.00291
 2     YELVHVWSSKANSLVG                0.0032
 3     NQWHNALTAAANLSGW               0.00291
 4     LKVESWRDALTKVASL                0.0032
 5     YGHESEIIKEIVDTIV               0.00262
 6     SNFREGLWRLLELSKK               0.00408
 7     AVAHEISKKMKIFATI               0.00262
 8     SSFRKGLWRLLELSKK               0.00408
 9     SSFREGLWRLLVLSKK               0.00437
10        NQWRNALTKVASL               0.00378
11     SSFCEGLWRLLELSKK               0.00437
12     EWIREQLRPALKEHLP               0.00437
13     SSFREGLCRLLELSKK                0.0032
14     SSFREGLWRLLELSEK               0.00349
15   NHHLDLPRGKAIKPEILG               0.00524
16    KEVEGWRDALTKVANLV               0.00349
17     LVAHEISKKKKIFATI               0.00291
18     LVAHEISKKMKIFETI               0.00466
19     KDVEGWRDALTKVASL               0.00349
20     SSFREGLWRLLELSKR               0.00291
21  KEVEGWRDALTAAANLSGW               0.00437
22     NVHESEIIKEIVDTIV               0.00291
23     YTALTNSGFHTFRDND               0.00291
24     SSFREGLWHLLELSKK               0.00553
25     LKVESWRQAQEKAGKL               0.00349
26     SSFRECLWRLLELSKK               0.00466
27     NDLVHVWSSKANSLVG               0.00495
28     ISFREGLWRLLELSKK               0.00291
29       NQWRNALTAAANLS               0.00553
30     SSFREGLWRLLELTKK                0.0032

* * *

# Tested On: MyD88^TIR (Homo sapiens, UniProt Q99836)
# Construct: MyD88 (residues 148–296); 6xHis; made in house; host or cells: E. coli BL21 (DE3)
# Sequence (Q99836 148-296): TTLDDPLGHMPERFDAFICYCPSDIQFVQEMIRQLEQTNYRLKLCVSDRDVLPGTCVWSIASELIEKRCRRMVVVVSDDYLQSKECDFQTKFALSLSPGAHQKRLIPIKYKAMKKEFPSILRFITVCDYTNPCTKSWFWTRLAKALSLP
# Assay: T‐Surf phage library (P8 and P3) selection against MyD88^TIR, four rounds, NGS read counts
# Assay type: binding
# Conditions Used: P8_MyD88: rank by count before grouping
Result Type: Rank (before)

> print(dat)
        record.sequence    result.type  quantitative.readout
1      WPQDPQDLGWFYERLE  Rank (before)                   899
2      VSSFISYLIAAFNRQG  Rank (before)                   124
3       PQDLDWFYERLVSLL  Rank (before)                   120
4      DPQDLDWFYERLASLL  Rank (before)                   720
5      YFRNESEFIQEIVQWV  Rank (before)                   125
6  LEANDSLFWDRLLYSLHVTE  Rank (before)                   214

* * *

# Tested On: MAL^TIR (Homo sapiens)
# Construct: MAL (residues 79–221); 6xHis; made in house; host or cells: E. coli BL21 (DE3)
# Sequence (P58753 79-221): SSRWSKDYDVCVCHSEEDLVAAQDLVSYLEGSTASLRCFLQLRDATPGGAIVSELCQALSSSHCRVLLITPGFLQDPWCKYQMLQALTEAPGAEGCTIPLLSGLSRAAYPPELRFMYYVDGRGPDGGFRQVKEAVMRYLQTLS
# Assay: T‐Surf phage library (P8 and P3) selection against MAL^TIR, four rounds, NGS read counts
# Format: binding
# Conditions Used: P8 library, selection against MAL, rank by count before grouping
Parameter P8_MAL Rank (before): see the listing below.
Result Type: P8_MAL Rank (before)

> print(dat)
     record.sequence           result.type  quantitative.readout
 1  LFFWEKLKSVLGNPTM  P8_MAL Rank (before)                  2067
 2  TLLDHLCNELVQAGIH  P8_MAL Rank (before)                  2639
 3  WFYERRVSLILLLTIV  P8_MAL Rank (before)                  1253
 4  SFFDRLVSVILRDTNV  P8_MAL Rank (before)                  1441
 5  WFLFTVRSAIYSISRA  P8_MAL Rank (before)                  1346
 6  TFLGFLYIALVQAGFL  P8_MAL Rank (before)                  2549
 7  TFFSQQLNTVVHTAIL  P8_MAL Rank (before)                  2542
 8  RNNFIGHLYQAPNQSV  P8_MAL Rank (before)                  2283
 9  WFYVRLVILALRDNNM  P8_MAL Rank (before)                  1128
10  AFFWEQLRTALGNPTM  P8_MAL Rank (before)                  1698
11   RNNFIGHLYQALYRI  P8_MAL Rank (before)                  2274
12  RKFVAYPFQALANKGI  P8_MAL Rank (before)                  2255
13  RNNFFGHLYHALYRIG  P8_MAL Rank (before)                  2261
14  AFLYTFLIILTHPINF  P8_MAL Rank (before)                  1833
15  AFFWAQLKNVLGSPTI  P8_MAL Rank (before)                  1642
16  AFLYTFLKNLPHPTNI  P8_MAL Rank (before)                  1873
17  AFMYTFLINLTHPNNF  P8_MAL Rank (before)                  1923
18  AFFWAQQKSVLGDPTM  P8_MAL Rank (before)                  1646
19  WFYDRIVSLNGRDKQV  P8_MAL Rank (before)                  1142
20   RNFWRIFFRRWPIKG  P8_MAL Rank (before)                  2184
21  SLLYDHLRRLGIRAIM  P8_MAL Rank (before)                  2491
22  GLSWGPYEWWMGLYDA  P8_MAL Rank (before)                  1572
23  LFFWGSLKHLLRSGCR  P8_MAL Rank (before)                  2059
24  ALFWAQLKCVMGNPAM  P8_MAL Rank (before)                  1932
25  AFFWAICIMRWCRRAF  P8_MAL Rank (before)                  1656
26  LFLWESLKHLLRSDSL  P8_MAL Rank (before)                  2147
27  AFLYAFLKNLTHPTNF  P8_MAL Rank (before)                  1813
28  NLWRNALTAAANLSSW  P8_MAL Rank (before)                  2656
29  YFLLFVLFGRSAIGSM  P8_MAL Rank (before)                  1459
30  SEFIQKMILWMNTKVV  P8_MAL Rank (before)                  2438
31  WFYERLVSLIRRDIKV  P8_MAL Rank (before)                  1219
32  WFFERLVKLILRDTKV  P8_MAL Rank (before)                  1114
33   RNFVRICFRRWRIKA  P8_MAL Rank (before)                  2235
34  FDRFHIYFLHFLLFSR  P8_MAL Rank (before)                  1087
35  TFHSHLYNALVQAGIH  P8_MAL Rank (before)                  2634
